Test system: Caco-2
Assay: cell viability relative to DMSO; higher = less toxic
Conditions: 72 h; 100 nM
Reported cell viability by item:
Give just the numeric value; % need not be written.

Recorded cell viability, per entry:
1) COc1cc(Br)c(Nc2nc(-c3c(C)nc4ncccn34)cs2)c(Br)c1 [PTC-209] : 96.1
2) CN[C@@H](C)C(=O)N[C@H](C(=O)N1CCC[C@H]1C(=O)Nc1sc(-c2ncco2)nc1-c1ccccc1)C1CCCCC1 [CUDC-427] : 98.5

Consider now this further molecule.
C=CC(=O)N1CCN(C(=O)CNc2cc(I)c(Cl)cc2O)CC1 [K-Ras(G12C)-inhibitor-12] yielded cell viability of 106
